assayedTarget: human opioid δ receptor (Homo sapiens, UniProt P41143)
Construct: host or cells: CHO cells
Sequence (P41143 whole entry): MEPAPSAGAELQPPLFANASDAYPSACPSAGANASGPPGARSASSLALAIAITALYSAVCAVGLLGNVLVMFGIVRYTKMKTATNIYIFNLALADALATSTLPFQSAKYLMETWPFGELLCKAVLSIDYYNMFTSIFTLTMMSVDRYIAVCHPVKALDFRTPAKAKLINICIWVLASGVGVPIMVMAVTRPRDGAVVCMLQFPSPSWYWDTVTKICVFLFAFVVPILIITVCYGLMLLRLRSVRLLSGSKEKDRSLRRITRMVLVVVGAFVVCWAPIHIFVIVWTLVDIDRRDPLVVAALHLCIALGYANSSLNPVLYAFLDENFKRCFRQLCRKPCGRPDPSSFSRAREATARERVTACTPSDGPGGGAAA
experimentSummary: Opioid receptor function test (agonist activity, Lance Ultra cAMP kit), δ receptor
Type: cell-based
recordedConditions: maximum reaction relative to control drug SNC 80 taken as 100%
Consider the following molecules; for each one, report its Emax.
Respond with the bare value in %.

May I ask what Emax has been recorded for `Cc1nn(-c2ccccc2)c2c1C[C@@]1(O)[C@H]3Cc4ccc(O)cc4[C@@]1(CCN3C)C2` ?
91

May I ask what Emax has been recorded for `Cc1nn(-c2cccnc2)c2c1C[C@@]1(O)[C@H]3Cc4ccc(O)cc4[C@@]1(CCN3CC1CC1)C2` ?
73

May I ask what Emax has been recorded for `Cc1nn(C2CCCCC2)c2c1C[C@@]1(O)[C@H]3Cc4ccc(O)cc4[C@@]1(CCN3CC1CC1)C2` ?
111

May I ask what Emax has been recorded for `Cc1c2c(nn1C1CCCC1)C[C@]13CCN(CC4CC4)[C@H](Cc4ccc(O)cc41)[C@]3(O)C2` ?
106

May I ask what Emax has been recorded for `Cc1nn(C2CCC2)c2c1C[C@@]1(O)[C@H]3Cc4ccc(O)cc4[C@@]1(CCN3CC1CC1)C2` ?
95

May I ask what Emax has been recorded for `Cc1nn(C2CCOCC2)c2c1C[C@@]1(O)[C@H]3Cc4ccc(O)cc4[C@@]1(CCN3CC1CC1)C2` ?
113

May I ask what Emax has been recorded for `Cc1c2c(nn1C1CCN(C)CC1)C[C@]13CCN(CC4CC4)[C@H](Cc4ccc(O)cc41)[C@]3(O)C2` ?
103

May I ask what Emax has been recorded for `Cc1nn(C(=O)c2ccccc2)c2c1C[C@@]1(O)[C@H]3Cc4ccc(O)cc4[C@@]1(CCN3CC1CC1)C2` ?
65

May I ask what Emax has been recorded for `Cc1c2c(nn1C1CCC1)C[C@]13CCN(CC4CC4)[C@H](Cc4ccc(O)cc41)[C@]3(O)C2` ?
104

May I ask what Emax has been recorded for `O=c1c2c([nH]n1-c1ccccc1)C[C@]13CCN(CC4CC4)[C@H](Cc4ccc(O)cc41)[C@]3(O)C2` ?
100

May I ask what Emax has been recorded for `Cc1nn(CC2CC2)c2c1C[C@@]1(O)[C@H]3Cc4ccc(O)cc4[C@@]1(CCN3CC1CC1)C2` ?
72

May I ask what Emax has been recorded for `Cc1c2c(nn1C(C)(C)C)C[C@]13CCN(CC4CC4)[C@H](Cc4ccc(O)cc41)[C@]3(O)C2` ?
108

May I ask what Emax has been recorded for `Cc1c2c(nn1CC1CC1)C[C@]13CCN(CC4CC4)[C@H](Cc4ccc(O)cc41)[C@]3(O)C2` ?
105

May I ask what Emax has been recorded for `Cc1nn(-c2ccccc2)c2c1C[C@@]1(O)[C@H]3Cc4ccc(O)cc4[C@@]1(CCN3CC1CC1)C2` ?
81

May I ask what Emax has been recorded for `Cc1c2c(nn1CC1CCCCC1)C[C@]13CCN(CC4CC4)[C@H](Cc4ccc(O)cc41)[C@]3(O)C2` ?
90
